METHOD SUMMARY: Inhibition of HIV Tat/TAR complex formation by fluorescence quenching assay
Set-up: species or system Human immunodeficiency virus
pKi: −log10 of the molar value.
VALUE KIND: pKi

>>> recorded_value("Cn1cc(C(=O)O)c(=O)c2cc(N)c(N3CCN(c4ccccn4)CC3)cc21")
5.66
>>> recorded_value("COc1cc(OC)c2c(=O)cc(-c3ccc(OCCCN)c(NC(=O)CCCN(C)C)c3)n(C)c2c1")
5.52
>>> recorded_value("COc1cc(OC)c2c(=O)cc(-c3ccc(OCCCN4CCN(C)CC4)c(N)c3)n(C)c2c1")
5.80
>>> recorded_value("COc1cc(OC)c2c(=O)cc(-c3ccc(OCCCN4CCCCC4)cc3)n(C)c2c1")
5.99
>>> recorded_value("COc1cc(OC)c2c(=O)cc(-c3ccc(OCCCN4CCCCC4)c(NC(=O)CCCN(C)C)c3)n(C)c2c1")
5.59
>>> recorded_value("COc1cc(OC)c2c(=O)cc(-c3ccc(OCCCN4CCCCC4)c(N)c3)n(C)c2c1")
5.71
>>> recorded_value("COc1cc(OC)c2c(=O)cc(-c3ccc(OCCCN)c(N)c3)n(C)c2c1")
5.41
